- Tested on: Yap1 mRNA
- assayProcedure: Dose-dependent inhibition of human Yap1 in A-431 cells (Example 7, 10,000 cells per well, RTS36584)
- Format: cell-based
- conditionSummary: Table 61, 62.5 nM, free uptake, A-431 cells 10,000 cells per well, 48 hours
Strand notation (5' to 3'): a small letter for the sugar, then the base; units joined by * are phosphorothioate-linked, units joined directly phosphodiester-linked; [ ] holds rarer units or linkages, { } end groups; capitals alone tell only the bases. k = constrained ethyl (cEt); [5mC] = 5-methylcytosine; d = 2'-deoxy (DNA)
Each entry below carries its reported Yap1 mRNA, % UTC.
Only the number, expressed in % UTC, is required.

958569 (kA*kG*k[5mC]*d[5mC]*dT*dT*dA*dG*dA*dG*dT*d[5mC]*dA*kA*kT*kT; antisense) [compound 958569] : 49
958509 (kA*kT*kG*dT*dT*dA*dT*dG*dT*dT*dT*dG*dG*kG*kT*kG; antisense) [compound 958509] : 37

Entry 958579 (kA*kT*k[5mC]*dT*dT*dA*dA*dT*d[5mC]*dT*dG*dT*dG*kG*k[5mC]*kT; antisense) [compound 958579] has what Yap1 mRNA, % UTC?
52

---

- Test system: Yap1 mRNA
- assayProcedure: Dose-dependent inhibition of human Yap1 in A-431 cells (Example 7, 10,000 cells per well, RTS36584)
- Assay type: cell-based
- conditionSummary: Table 58, 4000.00 nM, free uptake, A-431 cells 10,000 cells per well, 48 hours
Strand notation (5' to 3'): a small letter for the sugar, then the base; units joined by * are phosphorothioate-linked, units joined directly phosphodiester-linked; [ ] holds rarer units or linkages, { } end groups; capitals alone tell only the bases. k = constrained ethyl (cEt); [5mC] = 5-methylcytosine; d = 2'-deoxy (DNA)
assayMetric: Yap1 mRNA, % UTC (% UTC)
Number in % UTC, nothing else.

Solved entries:
958547 (k[5mC]*kA*k[5mC]*dA*dT*dA*d[5mC]*dT*d[5mC]*dT*dA*dG*dT*kT*kA*k[5mC]; antisense) [compound 958547] : 22
958477 (kA*kT*kT*dT*d[5mC]*d[5mC]*dG*dG*dT*dG*d[5mC]*dA*dT*kG*kT*kG; antisense) [compound 958477] : 6
958537 (k[5mC]*kA*kG*dG*dG*dT*d[5mC]*dA*dA*dT*dT*dT*dT*k[5mC]*kA*kG; antisense) [compound 958537] : 11
958807 (kT*k[5mC]*kA*dT*dT*dG*dT*dA*dG*dT*d[5mC]*dT*dG*kT*k[5mC]*kT; antisense) [compound 958807] : 10
958622 (kG*kA*kT*dA*dT*dT*d[5mC]*d[5mC]*dG*d[5mC]*dA*dT*dT*kG*k[5mC]*k[5mC]; antisense) [compound 958622] : 7

# ---- query substance ----
Please report the recorded Yap1 mRNA, % UTC for 958497 (kA*kT*kA*dT*dG*dG*dA*dA*dA*dT*dT*dG*dT*k[5mC]*kT*k[5mC]) [compound 958497] .
3

---

Recorded ALT by entry
- assayProcedure: Tolerability in CD-1 mice, plasma chemistry markers (Example 15)
- Type: in vivo
- conditionSummary: male CD-1 mice, 50 mg/kg s.c. twice a week for four weeks (8 treatments), day 26
- Method: CD-1 mice were treated with modified oligonucleotides selected from studies described above and evaluated for changes in the levels of various plasma chemistry markers. Groups of four male CD-1 mice at 4-5 weeks of age (obtained from Charles River) were injected subcutaneously twice a week for four weeks (for a total of 8 treatments) with 50 mg/kg of modified oligonucleotides. One group of male CD-1 mice was injected with PBS. […]
Strand notation (5' to 3'): a small letter for the sugar, then the base; units joined by * are phosphorothioate-linked, units joined directly phosphodiester-linked; [ ] holds rarer units or linkages, { } end groups; capitals alone tell only the bases. k = constrained ethyl (cEt); [5mC] = 5-methylcytosine; d = 2'-deoxy (DNA)
API: value field is a number in U/L; no unit string.

715483 (k[5mC]*kT*k[5mC]*dT*dT*dT*dG*dG*dA*dA*dA*d[5mC]*d[5mC]*kA*kT*kT) [compound 715483] : 79
716454 (antisense k[5mC]*kG*kA*dG*dA*dT*dT*dT*dA*dA*dA*dT*dA*kA*kG*kG) [compound 716454] : 44
715487 (kA*kT*kT*dA*d[5mC]*dT*dT*d[5mC]*dA*dT*dA*dG*d[5mC]*kT*kT*kA) [compound 715487] : 66

Now turn to the next substance.
Which ALT value is on record for 1074461 (kG*kA*kA*dA*dT*dT*dG*dT*d[5mC]*dT*d[5mC]*dA*dT*kG*k[5mC]*k[5mC]) [compound 1074461] ?
1563
